Quick reference for inhibition at 0.3 µM among some compounds
Target desc: TRPV1 (Rattus norvegicus (Rat), UniProt O35433)
Sequence (O35433 whole entry): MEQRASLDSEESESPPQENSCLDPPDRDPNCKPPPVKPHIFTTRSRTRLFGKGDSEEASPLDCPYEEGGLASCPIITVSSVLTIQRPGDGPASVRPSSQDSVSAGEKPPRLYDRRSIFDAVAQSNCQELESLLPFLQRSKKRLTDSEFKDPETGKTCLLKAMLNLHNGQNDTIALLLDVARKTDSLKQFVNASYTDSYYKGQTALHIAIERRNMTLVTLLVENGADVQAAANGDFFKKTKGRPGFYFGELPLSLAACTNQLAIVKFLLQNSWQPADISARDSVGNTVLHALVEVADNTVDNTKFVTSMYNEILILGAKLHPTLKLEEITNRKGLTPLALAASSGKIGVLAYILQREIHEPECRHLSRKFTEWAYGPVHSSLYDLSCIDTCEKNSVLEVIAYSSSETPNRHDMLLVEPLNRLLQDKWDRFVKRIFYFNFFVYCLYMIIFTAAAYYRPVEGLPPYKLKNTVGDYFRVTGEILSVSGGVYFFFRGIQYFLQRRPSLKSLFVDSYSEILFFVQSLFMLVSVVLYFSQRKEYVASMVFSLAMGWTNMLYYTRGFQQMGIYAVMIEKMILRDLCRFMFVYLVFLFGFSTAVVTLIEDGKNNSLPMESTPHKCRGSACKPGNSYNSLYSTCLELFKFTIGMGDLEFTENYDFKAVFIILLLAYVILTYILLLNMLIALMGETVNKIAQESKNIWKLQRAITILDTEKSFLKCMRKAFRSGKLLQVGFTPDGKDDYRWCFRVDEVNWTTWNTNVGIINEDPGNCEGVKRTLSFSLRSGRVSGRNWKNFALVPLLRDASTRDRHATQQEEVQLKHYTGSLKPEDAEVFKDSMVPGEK
Experimental details: Ca2+ fluorescence measurements in cultured rat dorsal root ganglia neurons (capsaicin-induced calcium uptake)
Type: cell-based
Condition info: DRG neuron; Table 3, formula IF-H; 300 nM against calcium uptake induced by 30 nM capsaicin; rat DRG neurons; read-out: % inhibition at 300 nM
The answer is to be given in %; state only the numeric part.

Req: What value of inhibition at 0.3 µM has been reported for the following compound? O=C(NCc1ccc(C(F)(F)F)cc1N1CCCCC1)c1cccc2oc(=O)[nH]c12
Resp: 8

Req: What value of inhibition at 0.3 µM has been reported for the following compound? O=C(NCc1ccc(C(F)(F)F)cc1)c1cccc2oc(=O)[nH]c12
Resp: 5

Req: What value of inhibition at 0.3 µM has been reported for the following compound? O=C1COc2cccc(C(=O)NCc3ccc(C(F)(F)F)cc3)c2N1
Resp: 8

Req: What value of inhibition at 0.3 µM has been reported for the following compound? O=C1COc2c(cccc2C(=O)NCc2ccc(C(F)(F)F)cc2N2CCCCC2)N1
Resp: 65

Req: What value of inhibition at 0.3 µM has been reported for the following compound? O=C(NCc1ccc(C(F)(F)F)cc1N1CCOCC1)c1cccc2oc(=O)[nH]c12
Resp: 15

Req: What value of inhibition at 0.3 µM has been reported for the following compound? O=C1COc2cccc(C(=O)NCc3ccc(C(F)(F)F)cc3N3CCCCC3)c2N1
Resp: 79
